assay: Cell-based activity under Prompt Conditions: Cell-based activity under Prompt Conditions. Rat or human NHE3-mediated Na+-dependent H+ antiport was measured using a modification of the pH sensitive dye method originally reported by Paradiso (PNAS USA. 81:7436-7440, 1984). Opossum kidney (OK) cells were obtained from the ATCC and propagated per their instructions. The rat NHE3 gene (GenBank M85300) or the human NHE3 gene (GenBank NM_004174.1) was introduced into OK cells via electroporation, and cells were seeded into 96 well plates and grown overnight. Medium was aspirated from the wells, cells were washed twice with NaCl-HEPES buffer (100 mM NaCl, 50 mM HEPES, 10 mM glucose, 5 mM KCl, 2 mM CaCl2, 1 mM MgCl2, pH 7.4), then incubated for 30 min at room temperature with NH4Cl-HEPES buffer (20 mM NH4Cl, 80 mM NaCl, 50 mM HEPES, 5 mM KCl, 2 mM CaCl2, 1 mM MgCl2, pH 7.4) containing 5 μM bis(acetoxymethyl) 3,3′-(3′,6′-bis(acetoxymethoxy)-5-((acetoxymethoxy)carbonyl)-3-oxo-3H-spiro[isobenzofuran-1,9′-xanthene]-2′,7′-diyl)dipropanoate (BCECF-AM).Cells were washed twice with Ammonium free, Na+-free HEPES (100 mM choline, 50 mM HEPES, 10 mM glucose, 5 mM KCl, 2 mM CaCl2, 1 mM MgCl2, pH 7.4) and incubated in the same buffer for 10 minutes at room temperature to lower intracellular pH. […] Initial rates were plotted as the average 2 or more replicates, and pIC50 values were estimated using GraphPad Prism.
REPORTED PROPERTY: IC50
State the value with its unit after it.

Below is a list of molecules. For each, state its recorded IC50.
1. O=C(NCCOCCOCCNS(=O)(=O)c1ccc(O[C@H]2c3ccccc3C[C@@H]2N2CCCCC2)cc1)c1ccc(C(=O)NCCOCCOCCNS(=O)(=O)c2ccc(O[C@H]3c4ccccc4C[C@@H]3N3CCCCC3)cc2)cc1
2. CN1Cc2c(Cl)cc(Cl)cc2[C@H](c2cccc(S(=O)(=O)N(C)CCOCCOCCNC(=O)NCCCN(CCCNC(=O)NCCOCCOCCN(C)S(=O)(=O)c3cccc([C@@H]4CN(C)Cc5c(Cl)cc(Cl)cc54)c3)CCCNC(=O)NCCOCCOCCN(C)S(=O)(=O)c3cccc([C@@H]4CN(C)Cc5c(Cl)cc(Cl)cc54)c3)c2)C1

1: 7.94 nM; 2: 100 nM

# return IC50 for each item in the list
1. COCCNC(=O)CN(C)CC(=O)NCCOCCOCCNC(=O)NCCOCCOCCOCCOc1ccc(-c2nc(NC(=N)N)nc3ccc(Cl)cc23)cc1
2. CN1Cc2c(Cl)cc(Cl)cc2[C@H](c2cccc(S(=O)(=O)NCCOCCOCCOCCNC(=O)CC(O)(CC(=O)NCCOCCOCCOCCNS(=O)(=O)c3cccc([C@@H]4CN(C)Cc5c(Cl)cc(Cl)cc54)c3)C(=O)NCCOCCOCCOCCNS(=O)(=O)c3cccc([C@@H]4CN(C)Cc5c(Cl)cc(Cl)cc54)c3)c2)C1

["12.6 nM", "100 nM"]

====

assay: Cell-based activity under Prompt Conditions: Cell-based activity under Prompt Conditions. Rat or human NHE3-mediated Na+-dependent H+ antiport was measured using a modification of the pH sensitive dye method originally reported by Paradiso (PNAS USA. 81:7436-7440, 1984). Opossum kidney (OK) cells were obtained from the ATCC and propagated per their instructions. The rat NHE3 gene (GenBank M85300) or the human NHE3 gene (GenBank NM_004174.1) was introduced into OK cells via electroporation, and cells were seeded into 96 well plates and grown overnight. Medium was aspirated from the wells, cells were washed twice with NaCl-HEPES buffer (100 mM NaCl, 50 mM HEPES, 10 mM glucose, 5 mM KCl, 2 mM CaCl2, 1 mM MgCl2, pH 7.4), then incubated for 30 min at room temperature with NH4Cl-HEPES buffer (20 mM NH4Cl, 80 mM NaCl, 50 mM HEPES, 5 mM KCl, 2 mM CaCl2, 1 mM MgCl2, pH 7.4) containing 5 μM bis(acetoxymethyl) 3,3′-(3′,6′-bis(acetoxymethoxy)-5-((acetoxymethoxy)carbonyl)-3-oxo-3H-spiro[isobenzofuran-1,9′-xanthene]-2′,7′-diyl)dipropanoate (BCECF-AM).Cells were washed twice with Ammonium free, Na+-free HEPES (100 mM choline, 50 mM HEPES, 10 mM glucose, 5 mM KCl, 2 mM CaCl2, 1 mM MgCl2, pH 7.4) and incubated in the same buffer for 10 minutes at room temperature to lower intracellular pH. […] Initial rates were plotted as the average 2 or more replicates, and pIC50 values were estimated using GraphPad Prism.
REPORTED PROPERTY: IC50 (nM)
Answers are plain numbers, in nM.

N=C(N)Nc1nc(-c2ccc(S(=O)(=O)NCCOCCOCCN)cc2)c2cc(Cl)ccc2n1    126
CN1Cc2c(Cl)cc(Cl)cc2[C@H](c2cccc(S(=O)(=O)NCCOCCOCCNC(=O)COCC(=O)NCCOCCOCCNS(=O)(=O)c3ccc(O[C@H]4c5ccccc5C[C@@H]4N4CCCCC4)cc3)c2)C1    25.1
CNC(=O)CN(CCN(CC(=O)O)CC(=O)NCCOCCOCCNC(=O)NCCOCCOCCOCCOc1cccc(-c2nc(NC(=N)N)nc3ccc(Cl)cc23)c1)CC(=O)O    20
CCC(=O)NC(CCC(=O)NCCOCCOCCOCCNS(=O)(=O)c1cccc([C@@H]2CN(C)Cc3c(Cl)cc(Cl)cc32)c1)(CCC(=O)NCCOCCOCCOCCNS(=O)(=O)c1cccc([C@@H]2CN(C)Cc3c(Cl)cc(Cl)cc32)c1)CCC(=O)NCCOCCOCCOCCNS(=O)(=O)c1cccc([C@@H]2CN(C)Cc3c(Cl)cc(Cl)cc32)c1    79.4
CC(C)(C(=O)NCCOCCOCCOCCNS(=O)(=O)c1ccc(O[C@H]2c3ccccc3C[C@@H]2N2CCCCC2)cc1)C(=O)NCCOCCOCCOCCNS(=O)(=O)c1ccc(O[C@H]2c3ccccc3C[C@@H]2N2CCCCC2)cc1    2

Quick one: give me IC50 for each item below, same order please.
1. CN1Cc2c(Cl)cc(Cl)cc2[C@H](c2cccc(S(=O)(=O)NCCOCCOCCNC(=O)CCC(CCCNC(=O)NCCOCCOCCNS(=O)(=O)c3cccc([C@@H]4CN(C)Cc5c(Cl)cc(Cl)cc54)c3)(CCC(=O)NCCOCCOCCNS(=O)(=O)c3cccc([C@@H]4CN(C)Cc5c(Cl)cc(Cl)cc54)c3)NC(=O)NCP(=O)(O)O)c2)C1
2. CN(CCN(CC(=O)O)CC(=O)NCCOCCOCCNC(=O)NCCOCCOCCOCCN1CCN(c2ccc(-c3nc(N=C(N)N)nc4ccc(Cl)cc34)cc2)CC1)CC(=O)O
3. CN1Cc2c(Cl)cc(Cl)cc2[C@H](c2cccc(S(=O)(=O)NCCOCCOCCNC(=O)CN(CCN(CC(=O)O)CC(=O)NCCOCCOCCNS(=O)(=O)c3cccc([C@@H]4CN(C)Cc5c(Cl)cc(Cl)cc54)c3)CC(=O)O)c2)C1
4. O=C(NCCOCCOCCOCCNS(=O)(=O)c1ccc(O[C@H]2c3ccccc3C[C@@H]2N2CCCCC2)cc1)c1cccc(C(=O)NCCOCCOCCOCCNS(=O)(=O)c2ccc(O[C@H]3c4ccccc4C[C@@H]3N3CCCCC3)cc2)c1

[50.1, 15.8, 12.6, 39.8]
